Measured LogEC50, listed per entry for reference.
Measured target: T1, human G-protein-coupled receptor family C group 5 member D (GPRC5D) (human, UniProt Q9NZD1 1-345)
T1 construct: whole, on cells; also called human GPRC5D protein
T1 sequence (Q9NZD1 whole entry): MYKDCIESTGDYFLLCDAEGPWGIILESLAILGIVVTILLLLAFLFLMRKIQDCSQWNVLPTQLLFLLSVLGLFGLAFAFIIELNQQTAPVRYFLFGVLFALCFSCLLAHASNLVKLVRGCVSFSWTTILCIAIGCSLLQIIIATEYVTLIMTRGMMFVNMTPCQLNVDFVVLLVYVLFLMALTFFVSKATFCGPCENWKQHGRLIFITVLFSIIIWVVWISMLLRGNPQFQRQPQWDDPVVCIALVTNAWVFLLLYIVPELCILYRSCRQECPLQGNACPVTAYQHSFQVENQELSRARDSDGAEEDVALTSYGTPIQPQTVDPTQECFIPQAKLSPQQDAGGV
Test: FACS, NCI-H929 cells
Parameter: LogEC50

Binder	Parameter	Measurement
6G10D9-XI (antibody, V domains shown, also called 6G10D9 (chimeric); 6G1009-X1) VH: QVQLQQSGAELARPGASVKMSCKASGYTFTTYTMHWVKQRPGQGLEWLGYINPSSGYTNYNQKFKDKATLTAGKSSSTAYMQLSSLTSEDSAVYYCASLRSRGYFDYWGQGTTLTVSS VL: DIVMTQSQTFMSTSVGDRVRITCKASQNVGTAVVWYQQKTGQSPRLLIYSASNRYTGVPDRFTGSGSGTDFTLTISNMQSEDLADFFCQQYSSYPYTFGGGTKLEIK	LogEC50	0.0515
6-H4L3 (antibody, V domains shown, humanized 6G10D9, VH v4 x VL v3) VH: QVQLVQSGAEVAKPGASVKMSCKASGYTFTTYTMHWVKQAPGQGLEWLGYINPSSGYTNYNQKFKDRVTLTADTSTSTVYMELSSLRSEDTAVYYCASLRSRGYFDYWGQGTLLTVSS VL: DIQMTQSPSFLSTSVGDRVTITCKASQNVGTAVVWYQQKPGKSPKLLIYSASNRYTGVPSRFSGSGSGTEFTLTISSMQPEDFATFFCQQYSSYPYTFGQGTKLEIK	LogEC50	1.61
58-H3L1 (antibody, V domains shown, humanized 58F9G10, VH v3 x VL v1) VH: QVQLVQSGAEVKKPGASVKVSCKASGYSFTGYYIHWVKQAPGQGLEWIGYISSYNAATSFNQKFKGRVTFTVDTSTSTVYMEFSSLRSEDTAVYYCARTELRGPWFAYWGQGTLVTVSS VL: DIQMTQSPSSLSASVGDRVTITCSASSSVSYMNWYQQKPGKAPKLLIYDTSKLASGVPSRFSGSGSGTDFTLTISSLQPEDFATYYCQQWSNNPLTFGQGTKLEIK	LogEC50	0.3
34-XI (antibody, V domains shown, also called 34D3H1 (chimeric)) VH: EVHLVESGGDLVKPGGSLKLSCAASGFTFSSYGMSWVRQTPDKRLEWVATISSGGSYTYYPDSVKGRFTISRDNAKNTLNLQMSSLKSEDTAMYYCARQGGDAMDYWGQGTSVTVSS VL: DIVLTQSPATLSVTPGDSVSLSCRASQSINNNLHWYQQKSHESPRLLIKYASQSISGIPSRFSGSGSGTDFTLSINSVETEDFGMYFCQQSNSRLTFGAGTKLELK	LogEC50	0.759
6-H3L3 (antibody, V domains shown, humanized 6G10D9, VH v3 x VL v3) VH: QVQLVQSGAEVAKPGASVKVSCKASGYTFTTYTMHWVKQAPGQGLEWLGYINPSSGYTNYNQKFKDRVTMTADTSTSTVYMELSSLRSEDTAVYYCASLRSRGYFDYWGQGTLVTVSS VL: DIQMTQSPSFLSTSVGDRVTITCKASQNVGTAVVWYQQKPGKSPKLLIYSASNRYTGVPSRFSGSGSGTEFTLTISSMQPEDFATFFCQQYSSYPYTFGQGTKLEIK	LogEC50	1.47
